# Target or system: ZFP SBS#485 (synthetic)
# Sequence (chain, as listed by the source): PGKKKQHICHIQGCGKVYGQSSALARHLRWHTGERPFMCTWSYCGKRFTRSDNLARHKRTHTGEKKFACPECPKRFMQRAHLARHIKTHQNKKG
# Assay details: EMSA
# Particulars: tags: MBP fusion
pKd: −log10 of the molar value.

>  <Binder>
GGAGAGGTTT (dsDNA) DNA 1: GGAGAGGTTT DNA 2: AAACCTCTCC

>  <pKd>
6.96

$$$$
